Test system: 282377-053-R-J1-PDC complex spheroid viability
PROTOCOL: Anticancer human tumor 282377-053-R-J1-PDC patient-derived colon adenocarcinoma cell line growth inhibition [RAS]
EXPERIMENTAL CONDITIONS: second compound 0.00316 µM; first compound 3.16 µM; active compounds read low
In this section, each of the compounds is paired with its reported viability, T/C.
Write the number in % without appending the unit.

# query: viability, T/C of entry CC(=O)OC12COC1CC(O)C1(C)C(=O)C(O)C3=C(C)C(OC(=O)C(O)C(NC(=O)OC(C)(C)C)c4ccccc4)CC(O)(C(OC(=O)c4ccccc4)C21)C3(C)C (stereo not drawn) + C=CC(=O)N1CCN(c2nc(OCC3CCCN3C)nc3c(F)c(-c4nc(N)cc(C)c4C(F)(F)F)c(Cl)cc23)C(C)C1
39.7

* * *

Quick reference: viability, T/C of the listed items.
Test system: 282377-053-R-J1-PDC complex spheroid viability
PROTOCOL: Anticancer human tumor 282377-053-R-J1-PDC cell line growth inhibition [RAS];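 further: spheroids exposed to agents for seven days before readout; luminescence viability as percent of DMSO vehicle control wells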
EXPERIMENTAL CONDITIONS: second compound 0.03 µM; first compound 0.316 µM; active compounds read low
From the text: RAS pathway inhibitors in Combinations in Complex Spheroids A high-throughput screen of multi-cell type tumor spheroids was designed to identify active combinations of RAS pathway inhibitors and targeted small molecules. Complex spheroids include a stromal component modeled by human endothelial cells (HUVEC) and fibroblasts modeled by human mesenchymal stem cells (MSCs). […] Compounds. […] If the clinical Cmax for an agent had not been determined, the highest concentration tested was 10 microM. […]

The cases that follow already have their viability, T/C on record.
COMPOUND	viability, T/C
CCN1CCN(Cc2ccc(Nc3ncc(F)c(-c4cc(F)c5nc(C)n(C(C)C)c5c4)n3)nc2)CC1 + CCn1c(-c2cccnc2C(C)OC)c2c3cc(ccc31)N1CCOC(CC(NC(=O)C(C(C)C)N(C)C(=O)C3(F)CCN(C(=O)C#CC(C)(C)N(C)C)CC3)C(=O)N3CCCC(N3)C(=O)OCC(C)(C)C2)C1	134%
C=CC(=O)N1CCN(c2nc(OCC3CCCN3C)nc3c(F)c(-c4nc(N)cc(C)c4C(F)(F)F)c(Cl)cc23)C(C)C1 (stereo not drawn) + CCn1c(-c2cccnc2C(C)OC)c2c3cc(ccc31)N1CCOC(CC(NC(=O)C(C(C)C)N(C)C(=O)C3(F)CCN(C(=O)C#CC(C)(C)N(C)C)CC3)C(=O)N3CCCC(N3)C(=O)OCC(C)(C)C2)C1	89.9%
CC1(O)CCCC1n1c(=O)c(C(F)F)cc2cnc(NC3CCN(S(C)(=O)=O)CC3)nc21 (stereo not drawn) + CCn1c(-c2cccnc2C(C)OC)c2c3cc(ccc31)N1CCOC(CC(NC(=O)C(C(C)C)N(C)C(=O)C3(F)CCN(C(=O)C#CC(C)(C)N(C)C)CC3)C(=O)N3CCCC(N3)C(=O)OCC(C)(C)C2)C1	153%
Cc1nc(N2CCC3(CC2)COC(C)C3N)c(CO)nc1Sc1ccnc(N)c1Cl (stereo not drawn) + CCn1c(-c2cccnc2C(C)OC)c2c3cc(ccc31)N1CCOC(CC(NC(=O)C(C(C)C)N(C)C(=O)C3(F)CCN(C(=O)C#CC(C)(C)N(C)C)CC3)C(=O)N3CCCC(N3)C(=O)OCC(C)(C)C2)C1	102%

Quick check: viability, T/C of CC1(O)CCCC1n1c(=O)c(C(F)F)cc2cnc(NC3CCN(S(C)(=O)=O)CC3)nc21 (stereo not drawn) + CCn1c(-c2cc(N3CCN(C)CC3)cnc2C(C)OC)c2c3cc(ccc31)-c1csc(n1)CC(NC(=O)C1CC1C)C(=O)N1CCCC(N1)C(=O)OCC(C)(C)C2 ?
169%

# repeat for Cc1nc(N2CCC3(CC2)COC(C)C3N)c(CO)nc1Sc1ccnc(N)c1Cl (stereo not drawn) + CCn1c(-c2cc(N3CCN(C)CC3)cnc2C(C)OC)c2c3cc(ccc31)-c1csc(n1)CC(NC(=O)C1CC1C)C(=O)N1CCCC(N1)C(=O)OCC(C)(C)C2
90.1%

Do the same for C[C@@H](NC(=O)c1ncnc(N)c1Cl)c1ncc(C(=O)Nc2cc(C(F)(F)F)c(Cl)cn2)s1 + CCn1c(-c2cc(N3CCN(C)CC3)cnc2C(C)OC)c2c3cc(ccc31)-c1csc(n1)CC(NC(=O)C1CC1C)C(=O)N1CCCC(N1)C(=O)OCC(C)(C)C2 please
89.4%

For O=C(c1ccc(F)c(F)c1Nc1ccc(I)cc1F)N1CC(O)([C@@H]2CCCCN2)C1 + CCn1c(-c2cc(N3CCN(C)CC3)cnc2C(C)OC)c2c3cc(ccc31)-c1csc(n1)CC(NC(=O)C1CC1C)C(=O)N1CCCC(N1)C(=O)OCC(C)(C)C2 then?
20.6%

* * *

Tested on: 282377-053-R-J1-PDC complex spheroid viability
PROTOCOL: Anticancer human tumor 282377-053-R-J1-PDC cell line growth inhibition [RAS];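 further: spheroids exposed to agents for seven days before readout; luminescence viability as percent of DMSO vehicle control wells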
EXPERIMENTAL CONDITIONS: second compound 0.0316 µM; first compound 1 µM; active compounds read low
Kindly apply the following: True if viability, T/C is less than 40%, False in every other case.

COMPOUND	ASSAYED SYSTEM	ASSIGNED CATEGORY
CC1(O)CCCC1n1c(=O)c(C(F)F)cc2cnc(NC3CCN(S(C)(=O)=O)CC3)nc21 (stereo not given) + C#Cc1c(F)ccc2cc(O)cc(-c3ncc4c(N5CC6CCC(C5)N6)nc(OCC56CCCN5CC(F)C6)nc4c3F)c12	282377-053-R-J1-PDC complex spheroid viability	False
O=C(c1ccc(F)c(F)c1Nc1ccc(I)cc1F)N1CC(O)([C@@H]2CCCCN2)C1 + C=CC(=O)N1CCN(c2nc(OCC3CCCN3C)nc3c(F)c(-c4nc(N)cc(C)c4C(F)(F)F)c(Cl)cc23)C(C)C1	282377-053-R-J1-PDC complex spheroid viability	True

# strict comparison: is reported viability, T/C < 40%? input = Nc1ccn(C2OC(CO)C(O)C2(F)F)c(=O)n1 (stereo not given) + C#Cc1c(F)ccc2cc(O)cc(-c3ncc4c(N5CC6CCC(C5)N6)nc(OCC56CCCN5CC(F)C6)nc4c3F)c12
False

Input C[C@@H](NC(=O)c1ncnc(N)c1Cl)c1ncc(C(=O)Nc2cc(C(F)(F)F)c(Cl)cn2)s1 + C=CC(=O)N1CCN(c2nc(OCC3CCCN3C)nc3c(F)c(-c4nc(N)cc(C)c4C(F)(F)F)c(Cl)cc23)C(C)C1
False

Then this compound: CCN1CCN(Cc2ccc(Nc3ncc(F)c(-c4cc(F)c5nc(C)n(C(C)C)c5c4)n3)nc2)CC1 + C#Cc1c(F)ccc2cc(O)cc(-c3ncc4c(N5CC6CCC(C5)N6)nc(OCC56CCCN5CC(F)C6)nc4c3F)c12
False

* * *

Tested on: 282377-053-R-J1-PDC complex spheroid viability
PROTOCOL: Anticancer human tumor 282377-053-R-J1-PDC cell line growth inhibition [RAS];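 further: spheroids exposed to agents for seven days before readout; luminescence viability as percent of DMSO vehicle control wells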
EXPERIMENTAL CONDITIONS: second compound 3.16 µM; first compound 0.0316 µM; active compounds read low
Source text: RAS pathway inhibitors in Combinations in Complex Spheroids A high-throughput screen of multi-cell type tumor spheroids was designed to identify active combinations of RAS pathway inhibitors and targeted small molecules. Complex spheroids include a stromal component modeled by human endothelial cells (HUVEC) and fibroblasts modeled by human mesenchymal stem cells (MSCs). […] Compounds. […] If the clinical Cmax for an agent had not been determined, the highest concentration tested was 10 microM. […]
METRIC NAME: viability, T/C (%)
Write the answer as a number in %, unit excluded.

COMPOUND	METRIC NAME	RECORDED VALUE
C[C@@H](NC(=O)c1ncnc(N)c1Cl)c1ncc(C(=O)Nc2cc(C(F)(F)F)c(Cl)cn2)s1 + C#Cc1c(F)ccc2cc(O)cc(-c3ncc4c(N5CC6CCC(C5)N6)nc(OCC56CCCN5CC(F)C6)nc4c3F)c12	viability, T/C	79.9
C=CC(=O)Nc1cc(Nc2nccc(-c3cn(C)c4ccccc34)n2)c(OC)cc1N(C)CCN(C)C + C#Cc1c(F)ccc2cc(O)cc(-c3ncc4c(N5CC6CCC(C5)N6)nc(OCC56CCCN5CC(F)C6)nc4c3F)c12	viability, T/C	114

Next compound, viability, T/C to be filled in.
API: value(readout= viability, T/C, system= 282377-053-R-J1-PDC complex spheroid viability, query= NC1c2ccccc2OC12CCN(c1cnc3c(N4CCCc5ncccc54)n[nH]c3n1)CC2 (stereo not drawn) + C#Cc1c(F)ccc2cc(O)cc(-c3ncc4c(N5CC6CCC(C5)N6)nc(OCC56CCCN5CC(F)C6)nc4c3F)c12 )
90.4

* * *

Tested on: 282377-053-R-J1-PDC complex spheroid viability
PROTOCOL: Anticancer human tumor 282377-053-R-J1-PDC cell line growth inhibition [RAS];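 further: spheroids exposed to agents for seven days before readout; luminescence viability as percent of DMSO vehicle control wells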
EXPERIMENTAL CONDITIONS: second compound 0.00949 µM; first compound 0.00316 µM; active compounds read low
METRIC NAME: viability, T/C (%)
Give a bare numeral; the unit % is implied.

MOLECULE	ASSAYED SYSTEM	RECORDED VALUE
CCN1CCN(Cc2ccc(Nc3ncc(F)c(-c4cc(F)c5nc(C)n(C(C)C)c5c4)n3)nc2)CC1 + CCn1c(-c2cccnc2C(C)OC)c2c3cc(ccc31)N1CCOC(CC(NC(=O)C(C(C)C)N(C)C(=O)C3(F)CCN(C(=O)C#CC(C)(C)N(C)C)CC3)C(=O)N3CCCC(N3)C(=O)OCC(C)(C)C2)C1	282377-053-R-J1-PDC complex spheroid viability	111
O=C(c1ccc(F)c(F)c1Nc1ccc(I)cc1F)N1CC(O)([C@@H]2CCCCN2)C1 + CCn1c(-c2cccnc2C(C)OC)c2c3cc(ccc31)N1CCOC(CC(NC(=O)C(C(C)C)N(C)C(=O)C3(F)CCN(C(=O)C#CC(C)(C)N(C)C)CC3)C(=O)N3CCCC(N3)C(=O)OCC(C)(C)C2)C1	282377-053-R-J1-PDC complex spheroid viability	74.3
C=CC(=O)Nc1cc(Nc2nccc(-c3cn(C)c4ccccc34)n2)c(OC)cc1N(C)CCN(C)C + CCn1c(-c2cccnc2C(C)OC)c2c3cc(ccc31)N1CCOC(CC(NC(=O)C(C(C)C)N(C)C(=O)C3(F)CCN(C(=O)C#CC(C)(C)N(C)C)CC3)C(=O)N3CCCC(N3)C(=O)OCC(C)(C)C2)C1	282377-053-R-J1-PDC complex spheroid viability	88

Consider the molecule shown here: Nc1ccn(C2OC(CO)C(O)C2(F)F)c(=O)n1 (centres undefined) + CCn1c(-c2cc(N3CCN(C)CC3)cnc2C(C)OC)c2c3cc(ccc31)-c1csc(n1)CC(NC(=O)C1CC1C)C(=O)N1CCCC(N1)C(=O)OCC(C)(C)C2 What is its recorded viability, T/C?
116

FYI, the data here is from PubChem BioAssay AID2060905.
